Assayed target: norovirus GII.3 TCH strain virus-like particle (VLP) (norovirus GII.3 TCH strain)
Experimental protocol: BLI (BLItz), biotinylated peptide on SA chip, VLP in solution
Ends that are not written are not given here.
Endpoint: kon (M⁻¹ s⁻¹)

FVWRRRAGLY (also: biotinylated via PEG3 (AEEEA)-Trp spacer, attachment site and resin-derived C-terminal Lys or Cys not given here) [norovirus-binding peptide of SEQ ID NO: 167]
3.14e+06
RFLVPVVKVM (also: biotinylated via PEG3 (AEEEA)-Trp spacer, attachment site and resin-derived C-terminal Lys or Cys not given here) [norovirus-binding peptide of SEQ ID NO: 103]
2.1e+06
